reported metric: melting point

1) Cc1c(CNCC2CCOCC2)n(C)c2c(C)c(NC(=O)c3ccc(OC[C@@H]4CCCO4)cc3)ccc12
173 to 174 °C
2) Cc1ccc(-c2c(C(=O)Nc3nccs3)nc(-c3cccc4ccccc34)n2Cc2ccccc2)cc1
231 to 232 °C
3) N#Cc1c(C#N)n(-c2ccc(Cl)cc2)c(=O)n1Cc1ccccc1
192 to 194 °C
4) COC1=Nc2c(C)ccnc2N(C2CC2)c2ncccc21
191 to 192 °C
5) COc1nc2cc(Cl)c(Cl)c(N(CC(C)O)S(C)(=O)=O)c2nc1OC (racemic)
176 to 177 °C
6) COC(=O)C1=C(C)NC(C)=C(C(=O)OC)C1c1cccc(NC(=NC#N)N(C)CCCN2CCC(c3ccccc3)CC2)c1
135 to 145 °C
7) CCOC(=O)Cc1ccc(NC(=O)C(COS(C)(=O)=O)NS(=O)(=O)c2ccc(F)cc2)cc1 (racemic)
81 to 82 °C
8) COc1ccc(S(N)(=O)=O)cc1C(=O)NC1CCN(CC2CC2)C1 (centres undefined)
150 °C
9) Cc1ccc(-c2csc(NC(=O)c3nnn[nH]3)n2)cc1
250 to 253 °C
10) CCCC(NS(=O)(=O)c1ccc(Cl)cc1)C(=O)NN (centres undefined)
120 °C
11) O=C1OC(CN2CCC(n3c(=O)[nH]c4ccccc43)CC2)CN1c1ccccc1 (centres undefined)
210 to 212 °C
12) CC1CC(=O)NN=C1c1ccc(Nc2nc(=O)c3ccccc3[nH]2)cc1 (centres undefined)
313 to 319 °C
13) Nc1nc(Nc2ccc(S(N)(=O)=O)cc2)sc1C(=O)c1sc(Br)cc1Br
254 to 255 °C
14) CCCCCCCCCCOc1cc2oc3c(C(=O)OCC)cccc3c(=O)c2cc1CCC(=O)OCC
61 to 63 °C
15) CCc1cc(S(=O)(=O)C(Br)(Br)Br)ccc1C(N)=O
175 to 177 °C
16) COc1ccc(C(=O)N2c3ccccc3SC2C#N)cc1 (centres undefined)
122 to 123 °C
17) CC(=O)Nc1occ(C(C)(C)C)c1C#N
135 °C
18) COC(=O)n1nc(Oc2c(F)cc(C(F)(F)F)cc2Cl)cc1C
123 to 125 °C
19) CN1CCN(c2cccc3ccc(NC(=O)Nc4ccccc4)cc23)CC1
213 to 214 °C

The values you see were collected from a melting point compilation (Tetko et al.; mined from patent text by program, amines drawn as free bases though some values may be those of a salt).
